# target-system: TTR in whole human plasma (Homo sapiens, UniProt P02766)
# Construct: TTR in whole plasma, from individuals homozygous for wild type TTR; from tissue; host or cells: whole human plasma
# procedure-details: Displacement of 125I-T4 from TTR in normal human plasma
# Type: binding
# measurement-context: wild type TTR, 30 min 37° C. with ligand, immunoprecipitation, mean of at least 3 replicates, read-out: D50 plasma
recorded-metric: IC50 (µM)

- compound: "O=C(O)CCc1cc(Cl)c(OCCCOCCCOc2c(Cl)cc(-c3nc4ccc(C(=O)O)cc4o3)cc2Cl)c(Cl)c1 [Compound B7]"
  unit-label: "µM"
  result-value: 18.4
- compound: "O=C(O)COCCOCCOCCOc1c(Cl)cc(Nc2ccccc2C(=O)O)cc1Cl [Compound B5]"
  unit-label: "µM"
  result-value: 66.4
- compound: "O=C(O)CCc1cc(Cl)c(OCC[C@@H](O)[C@H](O)CCOc2c(Cl)cc(Nc3ncccc3C(=O)O)cc2Cl)c(Cl)c1 [Compound B3]"
  unit-label: "µM"
  result-value: 1.7
- compound: "O=C(O)CCc1cc(Cl)c(OCCOCCCCOc2c(Cl)cc(Nc3ccccc3C(=O)O)cc2Cl)c(Cl)c1 [Compound B2]"
  unit-label: "µM"
  result-value: 2.59
- compound: "O=C(O)CCc1cc(Cl)c(OCC[C@@H](O)[C@H](O)CCOc2c(Cl)cc(-c3nc4ccc(C(=O)O)cc4o3)cc2Cl)c(Cl)c1 [Compound B16]"
  unit-label: "µM"
  result-value: 14.1

[1] O=C(O)CCc1cc(Cl)c(OCC[C@@H](O)[C@H](O)CCOc2ccc(Nc3ccccc3C(=O)O)cc2Cl)c(Cl)c1 [Compound B20]
[2] O=C(O)CCc1ccc(OCC[C@@H](O)[C@H](O)CCOc2c(Cl)cc(Nc3ccccc3C(=O)O)cc2Cl)c(Cl)c1 [Compound B21]
Lab note: check whether 1 or 2 shows the higher recorded IC50. Lab log: write the label of the selected item as the result.
1

[I] CCc1oc(-c2cc(Cl)c(OCC[C@@H](O)[C@H](O)CCOc3c(Cl)cc(CCC(=O)O)cc3Cl)c(Cl)c2)nc1C(=O)O [Compound B23]
[II] O=C(O)CCc1cc(Cl)c(OCC[C@@H](O)[C@H](O)CCOc2c(Cl)cc(Nc3ccccc3C(=O)O)cc2Cl)c(Cl)c1 [Compound B4A]
Lab note: check whether I or II shows the higher recorded IC50. Lab log: write the label of the selected item as the result.
I

[a] O=C(O)CCc1cc(Cl)c(OCCCOCCCOc2ccc(-c3nc4ccc(C(=O)O)cc4o3)cc2Cl)c(Cl)c1 [Compound B15]
[b] O=C(O)CCc1cc(Cl)c(OCCCOCCOc2c(Cl)cc(Nc3ccnnc3C(=O)O)cc2Cl)c(Cl)c1 [Compound B25]
[c] O=C(O)CCc1cc(Cl)c(OCCCOCCOc2c(Cl)cc(Nc3ccncc3C(=O)O)cc2Cl)c(Cl)c1 [Compound B27]
Reorder the items by IC50, least to greatest. To answer, arrange all of the labels according to the requested order.
c, b, a
(c: 2.2 µM, b: 3.2 µM, a: 61 µM)

====

# target-system: isolated wild type TTR (Homo sapiens)
# Construct: the non-covalently associated protomers, of mass 13,761, each contain 127 residues; His6 (N); TEV cleavage site (N)
# procedure-details: Displacement of 125I-T4 from isolated wild type TTR in buffer
# measurement-context: concentration of ligand reducing binding of 125I-T4 by TTR by 50%; 125 nM TTR, pH 8.0, overnight 4° C.; mean of at least 3 replicates; read-out: D50 buffer
pIC50: −log10 of the molar value.
recorded-metric: pIC50

- compound: "O=C(O)CCc1cc(Cl)c(OCCCOCCCOc2c(Cl)cc(-c3nc4ccc(C(=O)O)cc4o3)cc2Cl)c(Cl)c1 [Compound B7]"
  target-system: "isolated wild type TTR (Homo sapiens)"
  pIC50: 7.00
- compound: "O=C(O)CCc1ccc(OCC[C@@H](O)[C@H](O)CCOc2ccc(Nc3ccccc3C(=O)O)cc2Cl)c(Cl)c1 [Compound B22]"
  target-system: "isolated wild type TTR (Homo sapiens)"
  pIC50: 7.15
- compound: "O=C(O)COCCOCCOCCOc1c(Cl)cc(Nc2ccccc2C(=O)O)cc1Cl [Compound B5]"
  target-system: "isolated wild type TTR (Homo sapiens)"
  pIC50: 5.34
- compound: "O=C(O)CCc1cc(Cl)c(OCCOCCCCOc2c(Cl)cc(Nc3ccccc3C(=O)O)cc2Cl)c(Cl)c1 [Compound B2]"
  target-system: "isolated wild type TTR (Homo sapiens)"
  pIC50: 7.00
- compound: "O=C(O)CCc1cc(Cl)c(OCCCOCCOc2c(Cl)cc(Nc3ccncc3C(=O)O)cc2Cl)c(Cl)c1 [Compound B27]"
  target-system: "isolated wild type TTR (Homo sapiens)"
  pIC50: 7.00

[P] O=C(O)CCc1cc(Cl)c(OCCCOCCOc2c(Cl)cc(Nc3cnccc3C(=O)O)cc2Cl)c(Cl)c1 [Compound B26]
[Q] Cc1n[nH]c(COCCCCOCCOc2c(Cl)cc(CCC(=O)O)cc2Cl)c1CCCOc1cc(C(=O)O)ccc1F [Compound B10]
Lower value of pIC50 belongs to which: P or Q ? Lab log: write the label of the selected item as the result.
Q
